assay: chemical genetic growth profiling, strain panel (AID 1159580);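 further: tested at 20 µM; growth read once vehicle control cultures reached saturation at 30 °C; 1 = growth at the plate median or of vehicle wells; lower values mean less growth of the strain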; conditions: S. cerevisiae deletion strains, growth OD, locus YOL012C, strain htz1
The whole screen tested about 5,500 compounds, of which about 2,000 (36%) were called active. About 18% were inconclusive and are not listed. The list shows a part of the results.
In this section we review reported normalized growth values for a set of compounds.
Enter a number only.

## Input What value of measured normalized growth is listed for O=C(O)/C=C/c1ccc(O)c(O)c1 ?
## Output 0.725

## Input Same lookup for CN1CC(=O)N=C1N , please.
## Output 2.03

## Input Same lookup for COC(=O)/C=C/C(C)=C/C=C/C(C)=C/C=C/C=C(C)/C=C/C=C(C)/C=C/C(=O)O , please.
## Output 1.19

## Input Same lookup for c1ccc2c(c1)sc1ccccc12 , please.
## Output 0.804

====

test: chemical genetic growth profiling, strain panel (AID 1159580);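 further: tested at 20 µM; growth read once vehicle control cultures reached saturation at 30 °C; 1 = growth at the plate median or of vehicle wells; lower values mean less growth of the strain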; conditions: S. cerevisiae deletion strains, growth OD, locus YDR318W, strain mcm21
Out of some 5,500 compounds screened, about 2,000 (36%) were called active. Not shown: some 18% with an inconclusive outcome. Rule as the data show it: active = normalized growth mostly below about 0.91 (no sharp cut-off); inconclusive = no clear call, values can overlap the other calls; inactive = mostly above about 0.92. The list shows a part of the results.
Permitted responses: active, inactive

Please review the entries below; each comes with its answer.
# compound, label-class
records = [
    ("CCCCCCC(C)OC(=O)COc1cc(Cl)c(Cl)cc1Cl (stereo not given)", "inactive"),
    ("COc1ccc(-c2coc3cc(OC)ccc3c2=O)cc1", "active"),
]

## Input Hi, sorry to bother you, what did the test record for CN1C2CCC1CC(OC(c1ccccc1)c1ccccc1)C2 (stereo not given) ?
## Output inactive

## Input Same lookup for C=C1CCC2[C@](C)(CO)[C@H](O)CC[C@@]2(C)[C@@H]1C/C=C1/C(=O)OC[C@H]1O (stereo not given in full) , please.
## Output inactive

## Input Same lookup for CCC[C@H](N[C@@H](C)C(=O)N1[C@H](C(=O)O)C[C@@H]2CCCC[C@@H]21)C(=O)OCC , please.
## Output inactive

## Input Same lookup for COc1ccc2c(c1)OC/C(=C/c1ccc(OC)c(OC)c1)C2=O , please.
## Output active

## Input Same lookup for CC1(C)CCC[C@@]2(C)C1[C@@H](O)C[C@]1(C)C2CC[C@@H]2[C@@]3(C)CC[C@H](C(C)(C)O)[C@@H]3CC[C@@]21C (stereo not given in full) , please.
## Output inactive

## Input Same lookup for COc1ccccc1-c1coc2cc(O)ccc2c1=O , please.
## Output inactive

## Input Same lookup for O=c1c(-c2ccc(O)cc2)coc2cc(O)ccc12 , please.
## Output inactive

## Input Same lookup for C=C[C@@](C)(O)CCC1C(=C)C[C@H](O)C2C(C)(C)CCCC12C (stereo not given in full) , please.
## Output inactive

## Input Same lookup for C/C=C(\C)C(=O)O[C@H]1C[C@@H](OC(C)=O)[C@@]2(C(=O)OC)CO[C@@H]3C2[C@]12CO[C@](O)(C(=O)OC)[C@H]2[C@](C)(C12O[C@@]1(C)[C@H]1C[C@@H]2OC2OC=C[C@@]21O)[C@@H]3O (stereo not given in full) , please.
## Output inactive

## Input Same lookup for CN1C2C[C@H](OC(=O)[C@H](CO)c3ccccc3)C[C@H]1[C@@H](O)C2 , please.
## Output inactive

## Input Same lookup for OCC(O)CN1CCN(c2ccccc2)CC1 (stereo not given) , please.
## Output inactive

## Input Same lookup for CC[C@@H](C(=O)C(C)[C@@H](O)[C@H](C)CCc1ccc(C)c(O)c1C(=O)O)C1OC(CC)(C2CC[C@](O)(CC)[C@H](C)O2)C[C@@H]1C (stereo not given in full) , please.
## Output inactive

## Input Same lookup for COc1ccc2c(c1)OC/C(=C\c1ccc(OC)c(O)c1)C2=O , please.
## Output active

## Input Same lookup for COc1ccc(-c2coc3cc(O)ccc3c2=O)c(OC)c1O , please.
## Output inactive

## Input Same lookup for COc1ccc(-c2coc3cc(O)ccc3c2=O)c(OC)c1 , please.
## Output inactive
